System: 786-0 renal
Experiment: NCI-60 one-dose screen, 48 h (100 = growth as untreated, 0 = no growth, -100 = all killed)
Settings: 10 µM unless noted
This is part of a sample that, as a whole, favours compounds with a hit. Of some 83,000 tested, about 20% had one in any assay.
Would you mind telling me the reported growth of each entry?
Numbers only, in %.

molecule | recorded-value
COC(=O)CCc1cc(O)c2c(c1)[C@@H](C(=O)OC)[C@H](c1ccc(O)c(O)c1)O2 | 93.9
CNC(=O)c1cc(Oc2ccc3c(c2)sc2nc(-c4ccc(NC(C)=O)cc4)cn23)ccn1 | 33.8

Provide reported growth for each item, in the same order as listed.
1. CCOC(=O)NCCc1nc2c([nH]1)c(=O)n(C)c(=O)n2C
2. O=C(/C(=C/c1ccc([N+](=O)[O-])cc1)SCc1ccc(Cl)cc1)c1ccc(F)cc1
3. CCCCn1c(=O)c(/C=C/C(=O)/C=C/c2ccc(O)c(OC)c2)cc2ccc(Cl)cc21
4. NS(=O)(=O)c1ccc(-n2ncc(NC(=O)Nc3ccc(S(=O)(=O)Nc4nccs4)cc3)c2-c2ccccc2)cc1
5. C=CCn1c(SCC(=O)Nc2ccc(C(=O)/C=C/c3ccc(Cl)cc3)cc2)nnc1-c1cc(OC)c(OC)c(OC)c1

### Response
1. 102
2. 76.9
3. -0.448
4. 95.6
5. 81

Lab note: each molecule below needs its growth filled in.
1. COc1ccc2nc(-c3ccc(Cl)cc3)cc(-c3nnc(SC/C(=N/O)c4ccccc4)o3)c2c1
2. COc1cc(C2=NNC(c3ccc(N(C)C)cc3)C2)cc(OC)c1OC (configuration not stated)
3. CCC1=C[C@H]2CN(CCc3c([nH]c4ccccc34)[C@@](C(=O)OC)(c3cc4c(cc3OC)N(C)[C@H]3[C@@](O)(C(=O)OC)[C@H](OC(C)=O)[C@]5(CC)[C@@H]6C[C@@H]6CN6CC[C@]43[C@@H]65)C2)C1
4. Cc1cnc(-c2ccc(-c3ccc(NC(=O)Nc4c(F)cc(F)cc4F)cc3F)c3c2C(=O)NC3)[nH]1

### Response
1. 24.9
2. 23
3. 12.6
4. 23.1

----------
Test system: PC-3 prostate
Assay: NCI-60 one-dose screen, 48 h (100 = growth as untreated, 0 = no growth, -100 = all killed)
Conditions: 10 µM unless noted
The panel holds about 83,000 compounds, 20% with a hit somewhere; the sample as a whole holds those more often.
Class satisfied: growth at least 90%. Class not satisfied: growth below 90%.

# count of solved cases: 4
compound | target-under-test | discrete-label
CCCCc1nc(Cl)c(C2CC(c3ccc(Cl)cc3)=NN2c2cc(Cl)cc(Cl)c2)[nH]1 (stereo not given) | PC-3 prostate | not satisfied
CCOC(=O)C(=Cc1c(-c2ccccc2)[nH]c2ccccc12)C(=O)OCC | PC-3 prostate | not satisfied
COc1ccc2[nH]c3nc4cnccc4cc3c2c1 | PC-3 prostate | satisfied
CCC1S/C(=N\N=C(/C)c2ccc[nH]2)N(c2ccccc2)C1=O (stereo not given) | PC-3 prostate | satisfied

Let's switch to this compound now.
### Prompt Answer whether growth of "COc1ccc2nc(-c3ccc(OC)c(OC)c3)cc(-c3nnc(SCC(=O)Nc4ccc(C(C)=O)cc4)o3)c2c1" is greater than or equal to 90%.
### Response satisfied

----------
Tested on: DU-145 prostate
Assay: NCI-60 one-dose screen, 48 h (100 = growth as untreated, 0 = no growth, -100 = all killed)
Conditions: 10 µM unless noted
Protocol: Cells are grown in 96 well plates and exposed to the test compound for 48 hours. Compounds are tested at a single concentration, which is 10^-5 M for most compounds. The reported endpoint is percent growth (GI% or GIPRCNT), where numbers from 0 - 100% represent growth inhibition, and numbers from -100% - 0 represent cell death. For example, a value of 40 represents 60% growth inhibition. A value of 0 means no net growth occurred over the course of the experiment. […]
About 83,000 compounds went through this panel and 20% of them were active in at least one assay; those are over-represented in the sample as a whole.
property: growth (%)
One number for each entry, in %.

See these solved cases before continuing.
compound | growth, %
CC(C)NS(=O)(=O)c1cccc(-c2ccc3c(=O)n(CCCN)c4c(c3c2)C(=O)c2ccccc2-4)c1 | 107
Cc1cc(O)cc(O)c1N=NC1=NCCS1 | 103
CC1(C)CC[C@]2(c3nnc(-c4ccncc4)o3)CC[C@]3(C)C(=CC[C@@H]4[C@@]5(C)CCC(=O)C(C)(C)[C@@H]5CC[C@]43C)[C@@H]2C1 | 91.2
Nn1c(SCC(=O)Nc2ccc(Cl)cc2)nnc1-c1cc(F)c(Cl)cc1Cl | 108
C#CC[C@@H]1C[C@]2(C)[C@H]3CC[C@@H]4[C@H]5[C@H](C(=C)C)CC[C@]5(C(=O)O)CC[C@@]4(C)[C@]3(C)CC[C@H]2C(C)(C)[C@H]1O | 57.4
CSc1cccc(NC(=O)Nc2nc3c(C)cccc3s2)c1 | 114
Nc1ccc2c(c1)C(=O)C(=O)c1c-2nc2ccccn12 | -91.1
C=C1C(=O)O[C@H]2[C@H]1CC/C(COC(=O)c1cccnc1)=C\CC[C@@]1(C)O[C@@H]21 | 16.4
COc1ccc(-c2cc(C(=O)N3N=C(c4ccc(N)cc4)CC3c3ccc(OC)cc3)c3cc(OC)ccc3n2)cc1 (stereo not drawn) | 80.2
Nc1n[nH]c2cccc(C#Cc3cccc(NC(=O)c4cc(N5CCOCC5)cc(C(F)(F)F)c4)c3)c12 | 64.6

Go through the items and report each one's growth.
1. COc1cccc(NC(=O)Nc2ccc(Oc3ncnc4[nH]c(C)c(C)c34)cc2)c1
2. COc1ccc(-n2cc(-c3ccc(Cl)c(Cl)c3)[nH]c2=O)cc1OC
3. C#C[C@@]1(O)[C@@H](CO)O[C@@H](n2cc(F)c3c(N)ncnc32)[C@@H]1O
4. COc1cc(C2=NN(c3ccccc3)C(c3cccc(Nc4ccnc5cc(C(F)(F)F)ccc45)c3)C2)cc(OC)c1OC (stereo not drawn)
5. COc1cc(C)ccc1Oc1nc(Nc2ccc(N3CCOCC3)cc2)ncc1N=Cc1cc(C(F)(F)F)cc(C(F)(F)F)c1

### Response
[91.9, 98.3, 2.84, 93.6, 83.7]

----------
Tested on: KM12 colon
Test: NCI-60 one-dose screen, 48 h (100 = growth as untreated, 0 = no growth, -100 = all killed)
Details: 10 µM unless noted
Protocol: Growth inhibition of the KM12 human tumor cell line is measured as a screen for anti-cancer activity. Cells are grown in 96 well plates and exposed to the test compound for 48 hours. Compounds are tested at a single concentration, which is 10^-5 M for most compounds. The reported endpoint is percent growth (GI% or GIPRCNT), where numbers from 0 - 100% represent growth inhibition, and numbers from -100% - 0 represent cell death. For example, a value of 40 represents 60% growth inhibition. […]
The panel holds about 83,000 compounds, 20% with a hit somewhere; the sample as a whole holds those more often.
Note to self: values exactly at 80% are YES. So growth at or above 80% is YES, below is NO.

Study these solved cases before continuing.
compound | discrete-label
CS(=O)(=O)O[C@@H]1C(=O)N(c2cc3c4ccccc4ccc3c3ccccc23)[C@H]1c1ccc(F)cn1 | NO
CCCCn1c(=O)c(/C=C/C(=O)/C=C/c2ccc(OC)cc2)cc2cc(Cl)ccc21 | NO
COc1ccccc1Nc1nnc(-c2ccc(Cl)cc2)o1 | NO
CNS(=O)(=O)c1cccc(-c2ccc3c4c(n(C)c(=O)c3c2)-c2ccccc2C4=O)c1 | NO
CC(=O)OC[C@]12CC[C@@H](c3cn(Cc4ccc(Cn5cc([C@@H]6CC[C@]7(COC(C)=O)CC[C@]8(C)[C@H](CC[C@@H]9[C@@]%10(C)CC[C@H](OC(C)=O)C(C)(C)[C@@H]%10CC[C@]98C)[C@@H]67)nn5)cc4)nn3)[C@@H]1[C@H]1CC[C@@H]3[C@@]4(C)CC[C@H](OC(C)=O)C(C)(C)[C@@H]4CC[C@@]3(C)[C@]1(C)CC2 | YES
c1ccc2c3c([nH]c2c1)C(c1ccc(C2NCCc4c2[nH]c2ccccc42)cc1)NCC3 (centres undefined) | NO
CCOC(=O)CC[C@H](NC(=O)c1ccc(NC)c2ccccc12)C(=O)OCC | YES
CN(CCC#N)C(=O)Nc1ccccc1 | YES
Cc1cccc(C)c1NC(=O)CN(CC(C)C)CC(O)COc1ccccc1 (centres undefined) | YES
CC1CCN(CCCCCOc2ccc3oc4ccccc4c(=O)c3c2)CC1 | NO

### Prompt Confirm if growth reported for the compound COc1ccc(C2CC(c3ccc(OC)cc3O)=NN2c2ccc(S(N)(=O)=O)cc2)cc1 (centres undefined) is 80% or above.
### Response NO

### Prompt Quick check: does CCOC(=O)C1=C(C)n2nc(CC#N)c(C#N)c2NC1c1ccc(Cl)cc1 (centres undefined) have growth greater than or equal to 80%?
### Response YES

### Prompt For this compound, is measured growth 80% or higher? COc1cc2c(cc1OC)C(Sc1ccc(Cl)cc1)c1c(nc(N)c(C#N)c1N)O2 (centres undefined)
### Response NO

### Prompt # bool: growth of "CCCCCCCc1n(Cc2ccc3ccccc3c2)c2ccccc2[n+]1Cc1ccc2ccccc2c1" >= 80%
### Response NO

Entry source: PubChem BioAssay (NCI)
